- Test system: prototrophic yeast strain (CEN.PK113-7D)
- Assay Notes: Propidium iodide fluorescence-based CLS method in yeast (incl. high-throughput screening)
- Type: cell-based, Saccharomyces cerevisiae
- Measurement Parameters: concentration tested 100 μM; Yes/No call of the screen
Metric Name: Yeast CLS increase

Compound: CC1OC(OC2C(=O)c3c(O)cc(O)cc3OC2c2ccc(O)cc2)C(O)C(O)C1O (stereo not shown) [Engeletin]
Metric Name: Yeast CLS increase
Reported Measurement: Yes
--
Compound: OC[C@H]1O[C@@H](Oc2cc3c(O)cc(O)cc3[o+]c2-c2ccc(O)c(O)c2)[C@H](O)[C@@H](O)[C@H]1O.[Cl-] [Cyanidin-3-O-galactoside (chloride)]
Metric Name: Yeast CLS increase
Reported Measurement: No
--
Compound: Nc1ncnc2c1ncn2[C@H]1C[C@H](O)[C@@H](CO)O1 [2′-Deoxyadenosine]
Metric Name: Yeast CLS increase
Reported Measurement: No
--
Compound: CC(=O)OCC(=O)[C@@]1(OC(C)=O)[C@@H](C)C[C@H]2[C@@H]3C[C@H](F)C4=CC(=O)C=C[C@]4(C)[C@@]3(F)[C@@H](O)C[C@@]21C [Diflorasone, reference compound]
Metric Name: Yeast CLS increase
Reported Measurement: No

---

- System: prototrophic yeast strain (CEN.PK113-7D)
- Assay Notes: Propidium iodide fluorescence-based CLS method in yeast (incl. high-throughput screening)
- Assay type: cell-based, Saccharomyces cerevisiae
- Measurement Parameters: concentration tested 100 μM; Yes/No call of the screen
- Method: Yeast strain was recovered from frozen glycerol stock at 30° C. on YPD agar medium. Yeast was left to propagate in SD medium overnight at 30° C. with shaking at 220 revolutions per minute (rpm). […] CLS experiments were performed in 96-well plates with 200 μL yeast culture. […] Cells were incubated at 30° C., and the growth was measured at different time points. […]
Where a name gives a salt, the structure may show the parent alone. Residues, ends and D or L forms follow the SMILES beside them.

Compound: CC[C@H]1CN2CCc3cc(OC)c(OC)cc3[C@@H]2C[C@@H]1C[C@H]1NCCc2cc(OC)c(OC)cc21 [Emetine (dihydrochloride hydrate), reference compound]
Target Of Assay: prototrophic yeast strain (CEN.PK113-7D)
Yeast CLS increase: No

Compound: O=C(/C=C/c1ccc(O)c(O)c1)O[C@@H]1C[C@](O)(C(=O)O)C[C@@H](O)[C@H]1O [Chlorogenic acid]
Target Of Assay: prototrophic yeast strain (CEN.PK113-7D)
Yeast CLS increase: No

Compound: C[Se]CC[C@H](N)C(=O)O [L-SelenoMethionine]
Target Of Assay: prototrophic yeast strain (CEN.PK113-7D)
Yeast CLS increase: Yes

Compound: O=C1c2c(O)cccc2[C@@H]([C@@H]2O[C@H](CO)[C@@H](O)[C@H](O)[C@H]2O)c2cc(CO)cc(O)c21 [Aloin B]
Target Of Assay: prototrophic yeast strain (CEN.PK113-7D)
Yeast CLS increase: No

Compound: OC(CCN1CCCCC1)(c1ccccc1)C1CC2C=CC1C2 (stereo not shown) [Biperiden (Hydrochloride), reference compound]
Target Of Assay: prototrophic yeast strain (CEN.PK113-7D)
Yeast CLS increase: No

Compound: C[C@@H]1O[C@@H](O[C@H]2[C@H](O[C@H]3CC[C@@]4(C)[C@@H](CC[C@]5(C)[C@@H]4CC=C4[C@@H]6CC(C)(C)CC[C@]6(C(=O)O[C@@H]6O[C@H](CO[C@@H]7O[C@H](CO)[C@@H](O[C@@H]8O[C@@H](C)[C@H](O)[C@@H](O)[C@H]8O)[C@H](O)[C@H]7O)[C@@H](O)[C@H](O)[C@H]6O)CC[C@]45C)[C@]3(C)CO)OC[C@H](O)[C@@H]2O)[C@H](O)[C@H](O)[C@H]1O [Hederacoside C]
Target Of Assay: prototrophic yeast strain (CEN.PK113-7D)
Yeast CLS increase: No

Compound: COCCCOc1cc(C[C@@H](C[C@H](N)[C@@H](O)C[C@H](C(=O)NCC(C)(C)C(N)=O)C(C)C)C(C)C)ccc1OC.COCCCOc1cc(C[C@@H](C[C@H](N)[C@@H](O)C[C@H](C(=O)NCC(C)(C)C(N)=O)C(C)C)C(C)C)ccc1OC.O=C(O)/C=C/C(=O)O [Aliskiren (hemiumarate), reference compound]
Target Of Assay: prototrophic yeast strain (CEN.PK113-7D)
Yeast CLS increase: No

Compound: C[C@H](O)[C@H](O)c1cnc2nc(N)[nH]c(=O)c2n1 [6-Biopterin]
Target Of Assay: prototrophic yeast strain (CEN.PK113-7D)
Yeast CLS increase: No

Compound: O=C(O)CCCCCCCCCCCC(=O)O [Tridecanedioic acid]
Target Of Assay: prototrophic yeast strain (CEN.PK113-7D)
Yeast CLS increase: No

Compound: CCOC(=O)c1ccc(O)cc1 [Ethylparaben]
Target Of Assay: prototrophic yeast strain (CEN.PK113-7D)
Yeast CLS increase: No

Compound: C/C=C1\C(=O)C[C@H]2[C@@H]3CCC4=CC(=O)CC[C@]4(C)[C@H]3CC[C@]12C [Guggulsterone]
Target Of Assay: prototrophic yeast strain (CEN.PK113-7D)
Yeast CLS increase: No

Compound: CC[C@H](C)[C@@H]1NC(=O)[C@@H]2CCCN2C(=O)[C@@H]2CCCN2C(=O)[C@@H]2CCCN2C(=O)[C@H](CC(C)C)NC(=O)CNC(=O)CNC(=O)[C@H](Cc2ccccc2)NC1=O [Heterophyllin B] (cyclo(FGGLPPPI))
Target Of Assay: prototrophic yeast strain (CEN.PK113-7D)
Yeast CLS increase: No

Compound: O=C(O)Cc1ccccc1Nc1c(Cl)cccc1Cl [Diclofenac (Sodium), reference compound]
Target Of Assay: prototrophic yeast strain (CEN.PK113-7D)
Yeast CLS increase: No

Compound: C/C(=C\C(=O)OCCCCCCCCC(=O)O)C[C@@H]1OC[C@H](C[C@@H]2O[C@H]2[C@@H](C)[C@H](C)O)[C@@H](O)[C@H]1O [Mupirocin, reference compound]
Target Of Assay: prototrophic yeast strain (CEN.PK113-7D)
Yeast CLS increase: No

Compound: CC(C)CCC[C@@H](C)[C@H]1CC[C@H]2[C@@H]3CC[C@H]4CC(=O)CC[C@]4(C)[C@H]3CC[C@]12C [5α-Cholestan-3-one]
Target Of Assay: prototrophic yeast strain (CEN.PK113-7D)
Yeast CLS increase: No

Compound: COc1ccc(C=CC(=O)O)cc1OC [3,4-Dimethoxycinnamic acid]
Target Of Assay: prototrophic yeast strain (CEN.PK113-7D)
Yeast CLS increase: No
